Test: Clearance in Sprague-Dawley rat at 30 mg/kg, po in 0.5% methocel and 3 to 5 mg/kg, iv in 60% PEG 200
Conditions: in vivo
Parameter measured: clearance (mL/min/kg)

Annotate the compound COCCCc1cc(CN(C(=O)[C@H]2CNCC[C@@H]2c2ccc(OCCOc3c(Cl)cc(C)cc3Cl)cc2)C2CC2)cc(OC[C@H]2C[C@@H]2C(=O)NS(C)(=O)=O)c1 with its measured clearance.
26

Return the recorded clearance value; entry: COCCCc1cc(CN(C(=O)[C@H]2CNCC[C@@H]2c2ccc(OCCOc3c(Cl)cc(C)cc3Cl)cc2)C2CC2)cc(OCC[C@](C)(OC)C(=O)O)c1
23

1: CCC(CC)(CCOc1cc(CCCOC)cc(CN(C(=O)[C@H]2CNCC[C@@H]2c2ccc(OCCOc3c(Cl)cc(C)cc3Cl)cc2)C2CC2)c1)C(=O)O
2: COCCCc1cc(CN(C(=O)[C@H]2CNCC[C@@H]2c2ccc(OCCOc3c(Cl)cc(C)cc3Cl)cc2)C2CC2)cc(OCC2(CC(=O)O)CC2)c1
Of 1 and 2 , which shows the smaller clearance value? Your answer should be the label attached to the chosen record.
1
(1: 29 mL/min/kg, 2: 49 mL/min/kg)

* * *

Experiment: AUC (0 to 24 hrs) in Sprague-Dawley rat at 30 mg/kg, po in 60% PEG 200
Type: ADME, organism-based
Parameters: time < 24 hr, dose 30 mg/kg, route oral
Conditions: plasma
Parameter measured: AUC(0-t) at 24 h (µM·h)
Kindly provide the numeric value in µM·h only, without the unit symbol.

Answer with the recorded AUC(0-t) at 24 h of COCCCc1cc(CN(C(=O)[C@H]2CNCC[C@@H]2c2ccc(OCCOc3c(Cl)cc(C)cc3Cl)cc2)C2CC2)cc(OC[C@H]2C[C@@H]2C(=O)O)c1 only.
0.5

* * *

Assay: AUC (0 to 24 hrs) in Sprague-Dawley rat at 20 mg/kg, po as 0.5% methocel suspension
Type: ADME, organism-based
Design: time < 24 hr, dose 20 mg/kg, route oral
Settings: plasma
Parameter measured: AUC(0-t) at 24 h (µM·h)
Write the number in µM·h without appending the unit.

Name the recorded AUC(0-t) at 24 h of the item COCCCc1cc(CN(C(=O)[C@H]2CN(C(=O)OCc3oc(=O)oc3C)CC[C@@H]2c2ccc(OCCOc3c(Cl)cc(C)cc3Cl)cc2)C2CC2)cc(OC[C@H]2C[C@@H]2C(=O)O)c1 in your answer.
0.2

* * *

Test: Oral bioavailability in Sprague-Dawley rat at 30 mg/kg in 60% PEG 200
Format: ADME, organism-based
Details: in vivo
Parameter measured: bioavailability (%)
Please state the figure in %; there is no need to write the unit.

Note bioavailability for the compound shown: COCCCc1cc(CN(C(=O)[C@H]2CNCC[C@@H]2c2ccc(OCCOc3c(Cl)cc(C)cc3Cl)cc2)C2CC2)cc(OC[C@H]2C[C@@H]2C(=O)O)c1
4

* * *

System: Blood
Experiment: Metabolic stability in human whole blood assessed as conversion to (1R,2R)-2-((3-(((3R,4S)-N-cyclopropyl-4-(4-(2-(2,6-dichloro-4-methylphenoxy)ethoxy)phenyl)piperidine-3-carboxamido)methyl)-5-(3-methoxypropyl)phenoxy)methyl)cyclopropanecarboxylic acid after 20 mins
Assay type: ADME, tissue-based
Parameter measured: Activity (%)

Previously resolved entries follow.
Specify Activity for COCCCc1cc(CN(C(=O)[C@H]2CNCC[C@@H]2c2ccc(OCCOc3c(Cl)cc(C)cc3Cl)cc2)C2CC2)cc(OC[C@H]2C[C@@H]2C(=O)OCOC(=O)C(C)(C)C)c1 and stop.
56

Report measured Activity; entry is CCOC(=O)[C@H]1C[C@@H]1COc1cc(CCCOC)cc(CN(C(=O)[C@H]2CNCC[C@@H]2c2ccc(OCCOc3c(Cl)cc(C)cc3Cl)cc2)C2CC2)c1
3

State its Activity: COCCCc1cc(CN(C(=O)[C@H]2CN(C(=O)OCc3oc(=O)oc3C)CC[C@@H]2c2ccc(OCCOc3c(Cl)cc(C)cc3Cl)cc2)C2CC2)cc(OC[C@H]2C[C@@H]2C(=O)O)c1
11

P: CCOC(=O)OC(C)OC(=O)[C@H]1C[C@@H]1COc1cc(CCCOC)cc(CN(C(=O)[C@H]2CNCC[C@@H]2c2ccc(OCCOc3c(Cl)cc(C)cc3Cl)cc2)C2CC2)c1 (stereo not given in full)
Q: COCCCc1cc(CN(C(=O)[C@H]2CNCC[C@@H]2c2ccc(OCCOc3c(Cl)cc(C)cc3Cl)cc2)C2CC2)cc(OC[C@H]2C[C@@H]2C(=O)OCC(=O)N(C)C)c1
Between P and Q , whose measured Activity reads higher? Your choice should be expressed through its label.
P
(P: 38%, Q: 1%)
